Measured Δ log (Treated-Control at 4 h), listed per entry.
- System: K. pneumoniae FADDI-KP032
- TEST: In vivo efficacy in mouse blood infection model (neutropenic Swiss mice)
- ASSAY SETUP: compound, free base 4 mg/kg intravenously 2 h after inoculation, blood at 4 h
- Description: P. aeruginosa ATCC 27853, A. baumannii ATCC 19606 and K. pneumoniae FADDI-KP032 were subcultured on nutrient agar plates. One colony of each bacterial strain was dispersed in 10-mL CAMHB and incubated overnight. […] The exact injection volume for each bacterial suspension was calculated based upon the OD value of the bacterial suspension and the desired inoculum for each isolate. […] The agar plates were incubated at 37° C. overnight. […] The log10 CFU/mL of blood in each mouse was calculated. […]
Positions of bridges follow the written chain, without caps; N, C: chain ends. Non-standard residues stand in square brackets, D forms with d. Residues, ends and D or L forms follow the SMILES beside them. *: point of attachment. X7 = O=C(c1cc(F)cc(C(F)(F)F)c1)*; dNle = CCCC[C@@H](N)C(=O)O; Nonanoyl = CCCCCCCCC(=O)*; Octanoyl = CCCCCCCC(=O)*; Dab = NCC[C@H](N)C(=O)O; Abu = CC[C@H](N)C(=O)O; Dap = NC[C@H](N)C(=O)O

MOLECULE	DISPLAY UNIT	Δ log (Treated-Control at 4 h)
CC[C@@H]1NC(=O)[C@@H](CC(C)C)NC(=O)[C@H](CCN)NC(=O)[C@@H](NC(=O)[C@H](CN)NC(=O)[C@@H](NC(=O)[C@H](CCN)NC(=O)c2cc(F)cc(C(F)(F)F)c2)[C@@H](C)O)CCNC(=O)[C@H]([C@@H](C)O)NC(=O)[C@H](CCN)NC(=O)[C@H](CCN)NC1=O [Compound 108] (X7-[Dab]T[Dap][Dab][Dab][dL][Abu][Dab][Dab]T; lactam 4-C)	log10 CFU/mL	−2.84
CCCCCCCCC(=O)N[C@@H](CCN)C(=O)N[C@H](C(=O)N[C@@H](CN)C(=O)N[C@H]1CCNC(=O)[C@H]([C@@H](C)O)NC(=O)[C@H](CCN)NC(=O)[C@H](CCN)NC(=O)[C@H](C)NC(=O)[C@@H](CC(C)C)NC(=O)[C@H](CCN)NC1=O)[C@@H](C)O [Compound 132] (Nonanoyl-[Dab]T[Dap][Dab][Dab][dL]A[Dab][Dab]T; lactam 4-C)	log10 CFU/mL	−3.16
CCCCCCCC(=O)N[C@@H](CCN)C(=O)N[C@H](C(=O)N[C@@H](CCN)C(=O)N[C@H]1CCNC(=O)[C@H]([C@@H](C)O)NC(=O)[C@H](CCN)NC(=O)[C@H](CCN)NC(=O)[C@H]([C@@H](C)O)NC(=O)[C@@H](CCCC)NC(=O)[C@H](CCN)NC1=O)[C@@H](C)O [Compound 24] (Octanoyl-[Dab]T[Dab][Dab][Dab][dNle]T[Dab][Dab]T; lactam 4-C)	log10 CFU/mL	−3.21

---

The reader will find reported Minimum inhibitory concentration, Ab A ATCC 17978 values listed item by item below.
- Test system: Acinetobacter baumannii
- Procedure: MICs of the lipopeptides (trifluoroacetic acid salt, TFA) were determined by broth microdilution in cation-adjusted Mueller-Hinton broth (CAMHB) (Oxoid Australia, Thebarton, SA, Australia) according to Clinical and Laboratory Standards Institute standards (Clinical and Laboratory Standards Institute. Performance standards for antimicrobial susceptibility testing; eighteenth informational supplement M100-S18. Wayne, Pa., 2008). Polymyxin B (sulphate) was employed as control. […]
Positions of bridges follow the written chain, without caps; N, C: chain ends. Non-standard residues stand in square brackets, D forms with d. Residues, ends and D or L forms follow the SMILES beside them. *: point of attachment. Benzoyl(3-CF3) = O=C(c1cccc(C(F)(F)F)c1)*; Phenylacetyl(4-Cl) = O=C(Cc1ccc(Cl)cc1)*; X17 = Cc1cc(C(=O)*)cc(C(F)(F)F)c1; X13 = O=C(Cc1ccc(Cl)cc1Cl)*; dNle = CCCC[C@@H](N)C(=O)O; Octanoyl = CCCCCCCC(=O)*; Orn = NCCC[C@H](N)C(=O)O; X25 = Cc1cccc(C(=O)*)c1C; X42 = Cc1ccc(C(=O)*)cc1F; Dab = NCC[C@H](N)C(=O)O; Abu = CC[C@H](N)C(=O)O; Dap = NC[C@H](N)C(=O)O; X44 = O=C(c1ccccc1Cl)*; X27 = Cc1ccccc1C(=O)*
ENDPOINT: Minimum inhibitory concentration, Ab A ATCC 17978 (mg/L)

COMPOUND	OBSERVED MEASUREMENT
CC[C@@H]1NC(=O)[C@@H](CC(C)C)NC(=O)[C@H](CCN)NC(=O)[C@@H](NC(=O)[C@H](CN)NC(=O)[C@@H](NC(=O)[C@H](CCN)NC(=O)c2ccc(C)c(F)c2)[C@@H](C)O)CCNC(=O)[C@H]([C@@H](C)O)NC(=O)[C@H](CCN)NC(=O)[C@H](CCN)NC1=O [Compound 102] (X42-[Dab]T[Dap][Dab][Dab][dL][Abu][Dab][Dab]T; lactam 4-C)	1
CC[C@@H]1NC(=O)[C@@H](Cc2ccccc2)NC(=O)[C@H](CCN)NC(=O)[C@@H](NC(=O)[C@H](CN)NC(=O)[C@@H](NC(=O)[C@H](CCN)NC(=O)c2cccc(C(F)(F)F)c2)[C@@H](C)O)CCNC(=O)[C@H]([C@@H](C)O)NC(=O)[C@H](CCN)NC(=O)[C@H](CCN)NC1=O [Compound 122] ({Benzoyl(3-CF3)}-[Dab]T[Dap][Dab][Dab][dF][Abu][Dab][Dab]T; lactam 4-C)	0.25
CCCCCCCC(=O)N[C@@H](CCN)C(=O)N[C@H](C(=O)N[C@@H](CCN)C(=O)N[C@H]1CCNC(=O)[C@H]([C@@H](C)O)NC(=O)[C@H](CCN)NC(=O)[C@H](CCN)NC(=O)[C@H]([C@@H](C)O)NC(=O)[C@@H](CCCC)NC(=O)[C@H](CCN)NC1=O)[C@@H](C)O [Compound 24] (Octanoyl-[Dab]T[Dab][Dab][Dab][dNle]T[Dab][Dab]T; lactam 4-C)	1
CC[C@@H]1NC(=O)[C@@H](CC(C)C)NC(=O)[C@H](CCN)NC(=O)[C@@H](NC(=O)[C@H](CN)NC(=O)[C@@H](NC(=O)[C@H](CCN)NC(=O)c2cccc(C)c2C)[C@@H](C)O)CCNC(=O)[C@H]([C@@H](C)O)NC(=O)[C@H](CCN)NC(=O)[C@H](CCN)NC1=O [Compound 91] (X25-[Dab]T[Dap][Dab][Dab][dL][Abu][Dab][Dab]T; lactam 4-C)	1
CCCCCCCC(=O)N[C@@H](CCN)C(=O)N[C@H](C(=O)N[C@@H](CN)C(=O)N[C@H]1CCNC(=O)[C@H]([C@@H](C)O)NC(=O)[C@H](CCN)NC(=O)[C@H](CCCN)NC(=O)[C@H]([C@@H](C)O)NC(=O)[C@@H](CC(C)C)NC(=O)[C@H](CCN)NC1=O)[C@@H](C)O [Compound 54] (Octanoyl-[Dab]T[Dap][Dab][Dab][dL]T[Orn][Dab]T; lactam 4-C)	0.5
CC[C@@H]1NC(=O)[C@@H](CC(C)C)NC(=O)[C@H](CCN)NC(=O)[C@@H](NC(=O)[C@H](CN)NC(=O)[C@@H](NC(=O)[C@H](CCN)NC(=O)c2ccccc2C)[C@@H](C)O)CCNC(=O)[C@H]([C@@H](C)O)NC(=O)[C@H](CCN)NC(=O)[C@H](CCN)NC1=O [Compound 75] (X27-[Dab]T[Dap][Dab][Dab][dL][Abu][Dab][Dab]T; lactam 4-C)	1
CCCCCCCC(=O)N[C@@H](CCN)C(=O)N[C@H](C(=O)N[C@@H](CCN)C(=O)N[C@H]1CCNC(=O)[C@H]([C@@H](C)O)NC(=O)[C@H](CCN)NC(=O)[C@H](CCN)NC(=O)[C@H](CC)NC(=O)[C@@H](CC(C)C)NC(=O)[C@H](CCN)NC1=O)[C@@H](C)O [Compound 60] (Octanoyl-[Dab]T[Dab][Dab][Dab][dL][Abu][Dab][Dab]T; lactam 4-C)	0.5
CC[C@@H]1NC(=O)[C@@H](CC(C)C)NC(=O)[C@H](CCN)NC(=O)[C@@H](NC(=O)[C@H](CN)NC(=O)[C@@H](NC(=O)[C@H](CCN)NC(=O)c2ccccc2Cl)[C@@H](C)O)CCNC(=O)[C@H]([C@@H](C)O)NC(=O)[C@H](CCN)NC(=O)[C@H](CCN)NC1=O [Compound 72] (X44-[Dab]T[Dap][Dab][Dab][dL][Abu][Dab][Dab]T; lactam 4-C)	4
CC[C@@H]1NC(=O)[C@@H](CC(C)C)NC(=O)[C@H](CCN)NC(=O)[C@@H](NC(=O)[C@H](CN)NC(=O)[C@@H](NC(=O)[C@H](CCN)NC(=O)c2cc(C)cc(C(F)(F)F)c2)[C@@H](C)O)CCNC(=O)[C@H]([C@@H](C)O)NC(=O)[C@H](CCN)NC(=O)[C@H](CCN)NC1=O [Compound 120] (X17-[Dab]T[Dap][Dab][Dab][dL][Abu][Dab][Dab]T; lactam 4-C)	0.5
CC[C@@H]1NC(=O)[C@@H](CC(C)C)NC(=O)[C@H](CCN)NC(=O)[C@@H](NC(=O)[C@H](CN)NC(=O)[C@@H](NC(=O)[C@H](CCN)NC(=O)Cc2ccc(Cl)cc2)[C@@H](C)O)CCNC(=O)[C@H]([C@@H](C)O)NC(=O)[C@H](CCN)NC(=O)[C@H](CCN)NC1=O [Compound 77] ({Phenylacetyl(4-Cl)}-[Dab]T[Dap][Dab][Dab][dL][Abu][Dab][Dab]T; lactam 4-C)	0.5
CC(C)C[C@H]1NC(=O)[C@H](CCN)NC(=O)[C@@H](NC(=O)[C@H](CN)NC(=O)[C@@H](NC(=O)[C@H](CCN)NC(=O)Cc2ccc(Cl)cc2Cl)[C@@H](C)O)CCNC(=O)[C@H]([C@@H](C)O)NC(=O)[C@H](CCN)NC(=O)[C@H](CCN)NC(=O)[C@H]([C@@H](C)O)NC1=O [Compound 62] (X13-[Dab]T[Dap][Dab][Dab][dL]T[Dab][Dab]T; lactam 4-C)	1
